# tested_system: UniProtKB P04150
# Sequence (P04150 whole entry): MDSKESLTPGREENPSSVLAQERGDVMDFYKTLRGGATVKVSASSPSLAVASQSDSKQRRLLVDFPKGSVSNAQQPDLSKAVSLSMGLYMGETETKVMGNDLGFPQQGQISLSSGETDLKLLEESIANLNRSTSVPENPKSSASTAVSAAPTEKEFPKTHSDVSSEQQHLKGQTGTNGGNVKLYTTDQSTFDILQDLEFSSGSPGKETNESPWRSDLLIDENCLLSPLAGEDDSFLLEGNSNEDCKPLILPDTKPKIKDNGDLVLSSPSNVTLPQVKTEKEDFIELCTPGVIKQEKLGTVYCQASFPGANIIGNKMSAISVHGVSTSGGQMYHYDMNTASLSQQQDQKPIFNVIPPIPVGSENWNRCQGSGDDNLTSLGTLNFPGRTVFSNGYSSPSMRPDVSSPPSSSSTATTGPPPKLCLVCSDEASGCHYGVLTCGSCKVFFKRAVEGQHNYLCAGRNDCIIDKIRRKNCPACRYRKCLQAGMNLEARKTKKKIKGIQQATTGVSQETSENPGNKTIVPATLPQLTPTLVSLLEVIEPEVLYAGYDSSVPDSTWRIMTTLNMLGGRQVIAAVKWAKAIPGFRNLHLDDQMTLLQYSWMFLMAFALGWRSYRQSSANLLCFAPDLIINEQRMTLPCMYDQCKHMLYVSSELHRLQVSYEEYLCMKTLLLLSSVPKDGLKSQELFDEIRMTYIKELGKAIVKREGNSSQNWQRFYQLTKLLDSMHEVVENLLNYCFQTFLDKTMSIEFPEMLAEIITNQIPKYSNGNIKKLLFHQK
# protocol_description: Activity at GR expressed in CHO cells assessed as decrease in dexamethasone-stimulated alkaline phosphatase production by GRAF assay
# Format: cell-based
readout_kind: IC50

{"smiles_repr": "CC#C[C@]1(O)CC[C@H]2[C@@H]3CCC4=CC(=O)CCC4=C3[C@@H](c3ccc(O)c(C)c3)C[C@@]21C", "readout_kind": "IC50", "value": "28.6 nM"}
{"smiles_repr": "CC#C[C@]1(O)CC[C@H]2[C@@H]3CCC4=CC(=O)CCC4=C3[C@@H](c3ccc(OCCO[C@H]4CC[C@@]5(C)[C@@H](C4)C[C@@H](O)[C@@H]4[C@@H]5C[C@H](O)[C@]5(C)[C@@H]([C@H](C)CCC(=O)O)CC[C@@H]45)c(C)c3)C[C@@]21C", "readout_kind": "IC50", "value": "30.7 nM"}
{"smiles_repr": "CC#C[C@]1(O)CC[C@H]2[C@@H]3CCC4=CC(=O)CCC4=C3[C@@H](c3ccc(OC)cc3C)C[C@@]21C", "readout_kind": "IC50", "value": "32 nM"}
{"smiles_repr": "CC#C[C@]1(O)CC[C@H]2[C@@H]3CCC4=CC(=O)CCC4=C3[C@@H](c3ccc(-c4ccc(OCCO[C@H]5CC[C@@]6(C)[C@@H](C5)C[C@@H](O)[C@@H]5[C@@H]6C[C@H](O)[C@]6(C)[C@@H]([C@H](C)CCC(=O)O)CC[C@@H]56)cc4)cc3)C[C@@]21C", "readout_kind": "IC50", "value": "23.5 nM"}
